- Study system: T1, FZD8 CRD (Homo sapiens, UniProt Q9H461)
- T1 construct: K31-D155; GPI anchor signal (C); expressed in transfected cells; host or cells: CHO cells, lentiviral pLenti-puro
- T1 sequence (Q9H461 31-155): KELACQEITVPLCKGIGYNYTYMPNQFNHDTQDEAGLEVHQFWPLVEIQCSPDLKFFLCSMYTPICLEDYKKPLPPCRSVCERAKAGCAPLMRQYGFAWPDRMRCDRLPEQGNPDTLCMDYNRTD
- Protocol summary: Immunofluorescence of anti-FZD5 Fab binding to CHO cells overexpressing Frizzled CRD
- Design: key: −: no binding; +: very weak binder; ++: weak binder; +++: good binder; ++++: very good binder
Parameter: Immunofluorescence binding, Frizzled CRD overexpressed on CHO cells: FZD8

Molecule: Fab-2905: anti-FZD5 Fab with antibody variable region Fv-2905; CDR SEQ ID NOs: 35, 36, 44, 83, 120, 157 (antibody, V domains shown) VH: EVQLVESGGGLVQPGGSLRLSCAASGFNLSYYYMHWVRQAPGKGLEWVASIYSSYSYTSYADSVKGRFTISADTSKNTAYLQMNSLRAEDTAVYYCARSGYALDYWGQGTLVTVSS VL: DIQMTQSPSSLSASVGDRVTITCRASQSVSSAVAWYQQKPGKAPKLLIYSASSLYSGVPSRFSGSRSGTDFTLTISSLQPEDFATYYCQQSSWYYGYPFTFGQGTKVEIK
Observed value: −

Molecule: Fab-2906: anti-FZD5 Fab with antibody variable region Fv-2906; CDR SEQ ID NOs: 35, 36, 45, 84, 121, 158 (antibody, V domains shown) VH: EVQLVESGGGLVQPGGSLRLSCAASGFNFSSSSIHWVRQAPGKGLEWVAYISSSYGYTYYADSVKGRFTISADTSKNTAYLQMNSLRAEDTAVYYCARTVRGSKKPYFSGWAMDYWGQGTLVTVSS VL: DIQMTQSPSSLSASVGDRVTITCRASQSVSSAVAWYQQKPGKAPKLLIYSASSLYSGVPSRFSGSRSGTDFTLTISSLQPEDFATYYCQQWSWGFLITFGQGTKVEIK
Observed value: +
